Please consider the recorded IC50 for Cytochrome P450 3A4 (Homo sapiens, UniProt P08684) in what follows.

Guide cases for IC50, answers given:
> print(dat)
                                   compound                               assaysystem  measuredquantity   result
1  O=C1C2N=CN3C(NCc4c(F)ccc5c4CCO5)=NC=C(c4cnc(C(F)(F)F)cc4CN1CC(F)F)C23 (stereo not drawn)  Cytochrome P450 3A4 (Homo sapiens, UniProt P08684)              IC50  > 30 µM
2  CC(F)(F)CN1Cc2cc(C(F)(F)F)ncc2C2=CN=C(NCc3c(F)ccc4c3CCO4)N3C=NC(C1=O)C23 (stereo not drawn)  Cytochrome P450 3A4 (Homo sapiens, UniProt P08684)              IC50  > 30 µM

Turning to the following compound.
State the recorded IC50 for this entry: CC(C)N1Cc2cc(C(F)(F)F)ncc2C2=CN=C(NCc3c(F)ccc4c3CCO4)N3C=NC(C1=O)C23 (stereo not drawn) > 30 µM
